test: Cytotoxicity against human HT-1080 cells assessed reduction in cell viability; format: toxicity, cell-based
In this section, each of the compounds is paired with its reported CC50.

O=C(Cn1ccnc1[N+](=O)[O-])NCc1ccccc1 | > 100 µM
COc1ccc([C@@H](O)[C@H]2CO[C@@H](c3ccc(OCc4ccccc4)c(OC)c3)[C@@H]2COC(C)=O)cc1OC | > 100 µM
COc1c([C@H]2OC[C@H]3[C@H]2CO[C@@H]3c2ccc3c(c2)OCO3)ccc2c1OCO2 | > 100 µM

Record CCOc1ccc([C@@H]2OC[C@H]([C@H](O)c3ccc(OC)c(OC)c3)[C@H]2COC(C)=O)cc1OC , field CC50: > 100 µM

Record COc1ccc([C@@H](O)[C@H]2CO[C@@H](c3ccc(OC)c(OC)c3)[C@@H]2COC(C)=O)cc1OC , field CC50: > 100 µM

Provenance of the data: ChEMBL document CHEMBL5620440
